All figures here come from ChEMBL document CHEMBL1201862.

- System: IGROV-1
- protocol-summary: NCI tumour cell line growth inhibition, 48 h
Activity calls are given as the source filed them. No stated cut-off is given here; in the data, active = GI50 up to about 1.1 µM and inactive = higher.
measured-attribute: GI50

# count of solved cases: 3
compound	GI50
Nc1ccc(C(=O)N/C(=C\c2cccc([N+](=O)[O-])c2)c2nc3cc(Cl)ccc3[nH]2)cc1	> 100 µM (inactive)
Oc1cc(CF)nc(S)n1	> 100 µM (inactive)
O=S(=O)(Nc1nc2ccccc2nc1N1CCCCCC1)c1ccccc1	20.8 µM (inactive)

Now consider a different compound.
// GI50 lookup, key: COc1cc2c(oc(=O)c3c4occc4cc(OC)c23)c2cccc(OCc3ccccc3)c12
> 100 µM (inactive)

----------
- Test system: HOP-92
- protocol-summary: NCI tumour cell line growth inhibition, 48 h
The source made the active and inactive calls. Rule as the data show it: active = GI50 up to about 1.1 µM and inactive = higher.
Listed here are molecules together with their documented GI50.

molecule	GI50
CC(C)c1ccc(/C=C2\N=C(c3ccc([N+](=O)[O-])cc3)OC2=O)cc1	> 100 µM (inactive)
O=C(O)c1cc2ccccc2c(S(=O)(=O)O)c1O	> 100 µM (inactive)
CCCCCCCCCCCC[N+](CCCCCCCCCCCC)=C1SCCS1	10.8 µM (inactive)

Record lookup: for HOP-92, what GI50 belongs to O=NN(CCCl)C(=O)N[C@H]1CCCC[C@@H]1Cl ?
> 100 µM (inactive)

Record lookup: for HOP-92, what GI50 belongs to COC(=O)C1(C(=O)OC)N=C(C)OC1/C=C/c1ccccc1 (stereo unspecified) ?
> 100 µM (inactive)

----------
- Tested on: XF498
- protocol-summary: NCI tumour cell line growth inhibition, 48 h
Calls of active or inactive are those of the source. No stated cut-off is given here; in the data, active = GI50 up to about 1.1 µM and inactive = higher.
measured-attribute: GI50

compound	data-value
CN(C)CCC(CCN(C)C)=NOC(=O)c1ccccc1	> 100 µM (inactive)

// GI50 lookup, key: Cc1cc(NCCCCCCCNc2cc(C)nc3cc(N)ccc23)c2ccc(N)cc2n1
17.2 µM (inactive)

// GI50 lookup, key: CCCOC(=O)C1C(c2ccc(OC)cc2)NC(c2ccc(OC)cc2)C(C(=O)OCCC)S1(=O)=O (stereo not given)
9.18 µM (inactive)

// GI50 lookup, key: COC1=CC(=O)C=C(OC)C1=O
2.99 µM (inactive)

----------
- Test system: CAKI-1
- protocol-summary: NCI tumour cell line growth inhibition, 48 h
The source made the active and inactive calls. Rule as the data show it: active = GI50 up to about 1.1 µM and inactive = higher.
Outcome (select one): active, inactive

compound	class-label
CC(Oc1ccc2c(=O)cc(-c3ccccc3)oc2c1)C(=O)O (stereo not drawn)	inactive
CC(NC(=O)C(Cc1ccc(OC(=O)c2ccccc2)cc1)NC(=O)OC(C)(C)C)C(=O)NCC(=O)NC(Cc1ccccc1)C(=O)NN (stereo not drawn)	inactive
O=[N+]([O-])c1ccc2nc3c(nc2c1)-c1c2ccccc2cc2cccc-3c12	inactive
CC(=O)OC12CC(C)C3(O)C4C=C(C)C(=O)[C@@]4(O)CC(CO)=C[C@H]3C1C2(C)C (stereo partly drawn)	inactive

Please share the test call associated with O=C1C=CC(=O)N1n1c(Cc2ccccc2)n[nH]c1=O .
inactive

Please share the test call associated with CCSSCS(C)(=O)=O .
inactive

Please share the test call associated with Nc1nc(-c2ccccc2)c(-c2ccccc2)c(-c2nc(N)nc(-c3ccccc3)c2-c2ccccc2)n1 .
inactive

Please share the test call associated with COC(=O)c1ccc(N/C=C(/C#N)c2ccsc2)cc1 .
inactive

Please share the test call associated with CCOC(=O)Oc1ccc(C(CNC(C)C)OC(=O)OCC)cc1OC(=O)OCC (stereo not drawn) .
inactive

Please share the test call associated with COc1ccc(N(CN2C(=O)CCC2OC)C(C)=O)cc1 (stereo not drawn) .
inactive
